# System: RXF 393 renal
# procedure_details: NCI tumour cell line growth inhibition, 48 h
This section presents compounds with their documented TGI values.

[[record]]
compound = "CC(C)(C)c1cc(S(=O)(=O)O)c2oc(-c3ccccc3)cc(=O)c2c1"
result = "> 100 µM"

[[record]]
compound = "Cc1ccc(N(C(=O)CC(=O)NN)C(=O)c2ccccc2Cl)cc1"
result = "> 100 µM"

[[record]]
compound = "CC(C)N(C(=O)C12CC3CC(CC(C3)C1)C2)C(C)C"
result = "> 50 µM"

[[record]]
compound = "N#Cc1nc(C2OC(COC(=O)c3ccccc3)C(OC(=O)c3ccccc3)C2OC(=O)c2ccccc2)oc1N (stereo unspecified)"
result = "> 100 µM"

[[record]]
compound = "Cc1ccc2c(c1)C(=O)C1(C2)Cc2c(C)cccc2C1=O (stereo unspecified)"
result = "> 100 µM"


Req: Name the reported TGI value associated with the compound COc1nn(Cc2ccccn2)c2ccc([N+](=O)[O-])cc12
Resp: > 100 µM

* * *

# Test system: NCI-H460 lung
# procedure_details: NCI tumour cell line growth inhibition, 48 h
Below: a set of entries, each annotated with reported TGI.

Before answering, review these 6 worked examples.
[[record]]
compound = "CCOC(=O)/C=C/CC(C)(C)COC(C)=O"
readout = "TGI"
result = "> 10 µM"

[[record]]
compound = "O=C1NC(=O)c2ccc([N+](=O)[O-])c3cccc1c23"
readout = "TGI"
result = "29.7 µM"

[[record]]
compound = "C[C@]12CC[C@H]3[C@@H](CCC4=CC(=O)CC[C@@H]43)[C@@H]1CC[C@]2(O)C(N)=O"
readout = "TGI"
result = "> 100 µM"

[[record]]
compound = "O=C(N/N=C/c1cccc(O)c1O)c1ccccc1"
readout = "TGI"
result = "> 100 µM"

[[record]]
compound = "CCCCN=C(N)c1ccc(OCCSCCOc2ccc(C(N)=NCCCC)cc2)cc1"
readout = "TGI"
result = "> 100 µM"

[[record]]
compound = "CCCCCCCCCCCCCCCCP(=O)(O)OCC(N)C(=O)O (configuration not stated)"
readout = "TGI"
result = "64.9 µM"


Shifting focus to the compound that follows.
Req: Query: TGI; subject: O=C1CSC(c2ccccc2)N1c1nc2cc3sc(N4C(=O)CSC4c4ccccc4)nc3cc2s1 (configuration not stated)
Resp: > 100 µM

* * *

Reported TGI is given for each of the following molecules.
# System: IGROV1 ovarian
# procedure_details: NCI tumour cell line growth inhibition, 48 h

[[record]]
molecule = "CC1=NN(c2ccccc2)C2(C1)C(Cl)C(=O)N2c1nc2ccccc2s1 (stereo not given)"
result = "> 100 µM"

[[record]]
molecule = "CCOC(=O)C(Cc1ccc2ccccc2c1)(Cc1ccc2ccccc2c1)C(C)=O"
result = "> 10 µM"

[[record]]
molecule = "COc1ccc(NC(=S)Nc2cc(C)ccn2)cc1"
result = "> 100 µM"


Req: Please look up its TGI: Cc1cccc2nc(-c3ccccc3)cc(=O)n12
Resp: > 100 µM

Req: Look at this molecule and give its reported TGI. C=CCCCCCCCCC(=O)NS(=O)(=O)c1ccccc1
Resp: > 100 µM

* * *

# Test system: K-562 leukemia
# procedure_details: NCI tumour cell line growth inhibition, 48 h
readout: log10 TGI (log10 of the value in µM)
Units before log transform: µM; reported quantity: TGI; transform: log10.

Take a look at these entries with their results.
[[record]]
compound = "CC(C)CCCC(C)[C@H]1CC[C@H]2n3c(nnc3-c3ccccc3)CCC[C@]12C (some centres not stated)"
readout = "log10 TGI"
measured_number = 1.13

[[record]]
compound = "CC(C)OC(=O)c1ccc(NCC2=CC(=O)C=CC2=O)cc1"
readout = "log10 TGI"
measured_number = 0.87

[[record]]
compound = "N=C1C(=N)c2ccccc2-c2ccccc21.[Cl-].[Ru+2].c1cnc2c(c1)ccc1cccnc12.c1cnc2c(c1)ccc1cccnc12"
readout = "log10 TGI"
measured_number = 1.90

[[record]]
compound = "COc1cc(NC(=O)c2cc(O)c(CC=C(C)C)c(O)c2)cc2c1O[C@]1(C)CC[C@@H](O)C(C)(C)[C@H]1C2"
readout = "log10 TGI"
measured_number = 1.53

[[record]]
compound = "Cc1ccc2nc3c(C(=O)NCCN(C)C)cccc3nc2c1"
readout = "log10 TGI"
measured_number = 0.97


Req: Entry c1ccc(C2=NNC3c4ccccc4-c4ccccc4N3C2)cc1 (configuration not stated) has what log10 TGI?
Resp: 1.91

Req: What value of log10 TGI has been recorded for this entry: COc1ccc2c(c1)CCC1C3(CCCC21C)OCCO3 (configuration not stated)
Resp: 1.62

* * *

# Test system: A498 renal
# procedure_details: NCI tumour cell line growth inhibition, 48 h
GI50 reference

Would you please look over these solved cases?
[[record]]
compound = "CC1CN1CC(O)C(O)CN1CC1C (stereo unspecified)"
tested_system = "A498 renal"
readout = "GI50"
result = "3610 nM"

[[record]]
compound = "COC(=O)Nc1nc2ccc(Oc3ccc(NC(=O)Nc4ccccc4)cc3)cc2[nH]1"
tested_system = "A498 renal"
readout = "GI50"
result = "141 nM"

[[record]]
compound = "CCN(CC)c1sc(N(CC)CC)c2c1SSSSS2"
tested_system = "A498 renal"
readout = "GI50"
result = "2030 nM"

[[record]]
compound = "O=C(CCl)Nc1ccc(Cl)cc1"
tested_system = "A498 renal"
readout = "GI50"
result = "10400 nM"

[[record]]
compound = "CC/C=C\\C[C@@H]1C/C=C2/C(=O)C=C[C@H]2C/C=C\\CCCC(=O)O1"
tested_system = "A498 renal"
readout = "GI50"
result = "1810 nM"


Req: Would you mind telling me what GI50 value was observed for Nc1ncc(-c2cnn(CCO)c2)c2scc(-c3ccc(NC(=O)Nc4cccc(F)c4)cc3)c12 ?
Resp: 122 nM

* * *

# Tested on: DMS 114 small cell lung
# procedure_details: NCI tumour cell line growth inhibition, 48 h
This section presents molecules with their documented TGI values.

Past entries and their recorded results:
[[record]]
molecule = "CC(C)N(C(=O)C12CC3CC(CC(C3)C1)C2)C(C)C"
readout = "TGI"
result = "> 50 µM"

[[record]]
molecule = "CCC[CH2][Sn]1([CH2]CCC)[O]C(=O)C(C(C)C)N=Cc2ccccc2[O]1 (stereo not given)"
readout = "TGI"
result = "0.229 µM"


Req: What TGI value was documented for this molecule, CC(C)=CCc1c(O)cc(O)c2c1OC(c1ccc(O)cc1)C(O)C2=O (stereo not given) ?
Resp: > 100 µM

Req: Suppose we examine the molecule CN(C)P(=O)(/C(N)=N/Nc1ccc([N+](=O)[O-])cc1)N(C)C ; what TGI value has been reported?
Resp: > 100 µM

Req: Please look up its TGI: COC(=O)c1cc(Br)c(Br)n1C
Resp: > 100 µM

* * *

# System: CAKI-1 renal
# procedure_details: NCI tumour cell line growth inhibition, 48 h; in the data active = GI50 below about 0.43 µM; inactive = the rest
Hi! Could you answer with just one of these? yes (active), no (inactive)

Examples from the recorded data:
[[record]]
molecule = "CCN1C(=O)CNc2ncc(-c3ccc(-c4ncn[nH]4)nc3C)nc21"
assigned_category = "yes"

[[record]]
molecule = "Cc1cc(C)c(C(=O)CC(=O)c2cccnc2)c(C)c1"
assigned_category = "no"


Now, please, on to the next molecule.
Req: Please indicate how the test categorized CC(=O)OC1Oc2ccccc2-c2oc(=O)c(-c3cc4ccc(N(C)C)cc4oc3=O)cc21 (stereo not drawn) .
Resp: no

* * *

# System: UACC-257 melanoma
# procedure_details: NCI tumour cell line growth inhibition, 48 h
Entries and their TGI

Req: Name the reported TGI value associated with the compound C=CCCCCCCCCC(=O)NS(=O)(=O)c1ccccc1
Resp: > 100 µM

Req: May I ask what TGI has been recorded for O=C(CP(=O)(c1ccccc1)c1ccccc1)c1cccc(C(=O)CP(=O)(c2ccccc2)c2ccccc2)c1 ?
Resp: > 100 µM

Req: Would you mind telling me what TGI value was observed for Cn1cc(C(=O)c2ccccc2)ccc1=O ?
Resp: > 100 µM

Req: Look up TGI: COC(=O)c1ccccc1/C=C1\Cc2c(C)c3c(c(C)c2C1=O)CCC3
Resp: > 100 µM

Req: Looking for the measured TGI of Cc1[nH]c(=O)[nH]c(=O)c1/C=C/C(=O)NC(CO)CC(C)C (stereo unspecified) , can you help?
Resp: > 375 µM

Req: What value of TGI has been recorded for this entry: Cc1cccc2nc(-c3ccccc3)cc(=O)n12
Resp: > 100 µM

* * *

# Tested on: 786-0 renal
# procedure_details: NCI tumour cell line growth inhibition, 48 h
readout: TGI

These solved cases illustrate the format of a correct answer.
[[record]]
compound = "CC1=NN(c2ccccc2)C2(C1)C(Cl)C(=O)N2c1nc2ccccc2s1 (stereo not drawn)"
tested_system = "786-0 renal"
result = "> 100 µM"

[[record]]
compound = "CC12CCCC(O)C1CCC1=CC3(CCC12)SCCS3 (stereo not drawn)"
tested_system = "786-0 renal"
result = "> 10 µM"


Turning now to a further record.
Req: Please report the recorded TGI for NCCCC[C@@H]1NC(=O)[C@H]2CCCN2C(=O)[C@H](Cc2ccccc2)NC(=O)[C@H](Cc2ccccc2)CNC1=O .
Resp: > 100 µM

This collection of values is drawn from PubChem BioAssay (NCI).
